# Test system: SN12C renal
# testSummary: NCI tumour cell line growth inhibition, 48 h
quantityMeasured: TGI

// fetch SN12C renal TGI for O=[N+]([O-])c1ccc([N+]2=NC(c3ccccc3)=NN(c3ccccc3)C2)cc1
> 100 µM

Now try Cc1ccc2c(C(=O)c3c(C)n(CCN4CCOCC4)c4ccccc34)cccc2c1 .
> 100 µM

Now try COc1c(C)c(C/C=C(\C)CC/C=C(\C)CC/C=C(\C)CCC=C(C)C)c(OC)c2ccccc12 .
> 100 µM

Now try CS(=O)(=O)N(CCC#N)c1ccc(C=O)cc1 .
> 100 µM

Now try CC12ON(P(=O)(c3ccccc3)c3ccccc3)C(C)(c3ccccc31)c1ccccc12 .
> 100 µM

Now try O=C(O)CNC(=O)c1ccc2cc(C(=O)N3CC(CCl)c4ccc([N+](=O)[O-])cc43)[nH]c2c1 (stereo unspecified) .
> 100 µM

Now try C=C(CNC(=O)c1ccccc1)c1ccc(C(=O)Nc2ccccc2N)cc1 .
8.93 µM

Now try O=C(O)CCc1ccc2c(c1)CC1(Cc3ccccc3C1)C2 .
> 100 µM

Now try c1ccc(B2OCC(C3OB(c4ccccc4)OC4COB(c5ccccc5)OC43)O2)cc1 (stereo unspecified) .
> 100 µM

Now try O=C1C(=O)N(c2nccs2)C(=O)C(=O)C1c1nc2ccccc2s1 .
> 100 µM

Now try COc1cc(NC(=O)NCc2ccco2)ccc1-c1ccc(NC(=O)NCc2ccco2)cc1OC .
23.3 µM

Now try COc1cccc(CCC(=O)c2cc3c(N)c(C(=O)Nc4cccc(Cl)c4C)sc3nc2C)c1 .
> 100 µM

Now try c1csc(-c2ccsc2-c2ccsc2)c1 .
> 100 µM

Now try Cc1cc(C)c(S(=O)(=O)N(CCc2cccc(Br)c2)Cc2ccc(-c3cccc(S(C)(=O)=O)c3)cc2)c(C)c1 .
> 100 µM

Now try Cc1ccc(S(=O)(=O)N/N=C2/CCC(C(C)(C)C)CC2Br)cc1 (stereo unspecified) .
32.4 µM

Now try OCC(O)C(O)C(O)c1nn(-c2ccccc2)c2nc3cc(Cl)c(Cl)cc3nc12 (stereo unspecified) .
> 100 µM

Now try CSc1ccc(SC2c3ccc(C)cc3Oc3nc(N)c(C#N)c(N)c32)cc1 (stereo unspecified) .
2.94 µM

Now try COC12C=CC(C=C1C#N)CC2 (stereo unspecified) (tested in a mixture with another compound) .
> 100 µM

Now try NCc1c(C(N)=O)ncn1Cc1ccccc1 .
> 100 µM

Now try NS(=O)(=O)c1ccc(-n2ncc3c(Nc4ccccc4)ncnc32)cc1 .
> 100 µM

Now try COc1c(Cl)ccc2c(-c3nc4cc(Cl)c(F)cc4s3)cc(=O)oc12 .
> 90.3 µM

----------
Please respond with reported TGI for every item in the list.
# Tested on: TK-10 renal
# testSummary: NCI tumour cell line growth inhibition, 48 h

// fetch TK-10 renal TGI for C=C1C(=O)OC2/C=C(\CO)CC/C=C(\CO)CC(OC(=O)C(C)C)C12 (stereo not given)
15.6 µM

Now try CCOC(=O)C(=O)CC(=O)C1=C(c2ccccc2OC)CC(c2cccs2)=CC1=O .
> 100 µM

Now try Clc1ccc(C2CC(c3cccc(Nc4ccncc4)c3)=NN2c2cc(Cl)cc(Cl)c2)cc1 (stereo not given) .
3.7 µM

Now try Cc1cc(C)c(S(=O)(=O)N(CCc2cccc(Br)c2)Cc2ccc(-c3cccc(S(C)(=O)=O)c3)cc2)c(C)c1 .
> 100 µM

Now try FC(F)(F)c1cccc2c(SCCc3n[nH]c(=S)o3)ccnc12 .
> 100 µM

Now try c1csc(-c2ccsc2-c2ccsc2)c1 .
> 100 µM

Now try COc1cc(OC2OC(COC(=O)c3cc(O)c(O)c(O)c3)C(O)C(O)C2O)ccc1O (stereo not given) .
> 100 µM

Now try Nc1cc(S(N)(=O)=O)ccc1SSc1ccc(S(N)(=O)=O)cc1N .
> 100 µM

Now try CC(C)(C)OC(=O)N1[C@@H]2Cc3ccc(N)cc3[C@@]1(C)c1ccccc12 .
> 100 µM

Now try CC12CCC(C(=Nc3cc(C(F)(F)F)cc(C(F)(F)F)c3)C1=O)C2(C)C (stereo not given) .
> 100 µM
